assay system: T1, KEA peptide complexed with HLA-A*02:01 on T2 cells (human)
T1 construct: whole, on cells
procedure text: flow cytometry, peptide-loaded T2 cells;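 also: binding of single-chain Fv antibody constructs, raised in XenoMouse, to peptide-pulsed T2 cells measured by flow cytometry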
endpoint name: Signal/background
Would you mind answering with just the numeric figure?

• 18181-G8 (scFv, scFv in bacterial lysate, detected with anti-Flag M2) scFv: EVQLLESGGGLVQPGGSLRLSCAASGFTFSNAWMSWVRQAPGKGLEWVGRIKGNTYGGTTDYAAPVKGRFTISRDDSKNTLFLQMNSLKTEDTAVYYCTTPSNSGSYYNYFSVMDVWGQGTTVTVSSGGGGSGGGGSGGGGSELVMTQSPSSLSASVGDRVTITCRTSQSISSYLNWYQQKPGKAPKLLIYAASSLQSGVPSRFSGSGSGTDFTLTISSLQPEDFATYYCQQTYSMPFTFGGGTKVEIK = 0.9

In the following, a different binder is considered.
Give the measured Signal/background of 18182-G8 (scFv, scFv in bacterial lysate, detected with anti-Flag M2) scFv: EVQLLESGGGLVKPGGSLRLSCAASGFTFSSYAMNWVRQAPGKGLEWVSAISGSGGGTYYADSGKGRFTISRDNSKNTLYLQMNSLRAEDTAVYYCATGKGVHLNFDYWGQGTLVTVSSGGGGSGGGGSGGGGSELVLTQPPSVSVAPGQTARITCGGNNIGSKSVHWYQQKPGQAPVMVVYDDNDRPSGIPERFSGSNSGNTATLTISRVEAGDEADYYCQVWDSSSDHVVFGGGTKLTVL .
0.9
